- protocol.notes: Catalepsy by oral route in Sprague-Dawley rats
- Assay type: in vivo
- measurement.setup: rat, in vivo; oral, Sprague-Dawley rats, 50% of treated animals showed catalepsy
A collection of compounds and their measured ED50
observation.type: ED50

>>> measured("Cc1nc2scc(-c3ccccc3F)n2c(=O)c1CCN1CCC(c2noc3cc(F)ccc23)CC1")
"> 50 mg/kg"
>>> measured("COc1ccc(-c2csc3nc(C)c(CCN4CCC(C(=O)c5ccc(F)cc5)CC4)c(=O)n23)cc1")
"> 50 mg/kg"
>>> measured("Cc1nc2scc(-c3ccccc3)n2c(=O)c1CCN1CCC(C(=O)c2ccc(F)cc2)CC1")
"> 50 mg/kg"
